Target: T1, human NGF (human, UniProt P01138 122-241)
T1 construct: also called human Nerve Growth Factor; hN
T1 chain: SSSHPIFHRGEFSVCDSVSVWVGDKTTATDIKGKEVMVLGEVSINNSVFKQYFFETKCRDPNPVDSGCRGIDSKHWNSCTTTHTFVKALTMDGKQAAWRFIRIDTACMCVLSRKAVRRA
Experiment: SPR (Biacore T200), 100 nM mAb on NGF chip, similarity to parent mAb
Measured Parameter: Percent Similarity Score (KD on hN) (%)
Answer format: numeric, % implied, no suffix.

INSERT INTO results (binder, measured_parameter, units_of_measure, value) VALUES
  ('can9L12VH_I50A (antibody, V domains shown) VH: EVQLVESGGDLVKPGGSLRLSCVASGFTFSSHGMHWVRQSPGKGLQWVAVANSGGSSTYYTDAVKGRFTISRDNAKNTVYLQMNSLRAEDTAMYYCAKESVGGWEQLVGPHFDYWGQGTLVIVSS VL: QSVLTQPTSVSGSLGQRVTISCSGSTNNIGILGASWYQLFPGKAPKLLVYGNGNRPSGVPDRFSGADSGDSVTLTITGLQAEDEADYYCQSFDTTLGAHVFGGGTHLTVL', 'Percent Similarity Score (KD on hN)', '%', 96.6);

Now for a further binder.
Prompt: Give the reported Percent Similarity Score (KD on hN) for this binder. can48L2VH_G55A (antibody, V domains shown, CDR scanning mutant of ZTS-842 (48L2)) VH: EVQLVESGGDLVKPGGSLRLSCVASGFTFSTYGINWVRQAPGKGLQWVAYISSGASSTYYADPVKGRFTISRDDAKNMLYLQMNSLRAEDTAIYYCAGSRYTYAYGGGYEFHFWGQGTLVTVSS VL: QAVLNQPASVSGALGQKVTISCSGSTMDIDIFGVSWYQQLPGKAPKLLVDSDGDRPSGIPDRFSGSRSGNSGTLTITGLQAEDEADYHCQSGDSTLGALAIFGGGTHVTVL
Response: 100
